# TGT: HLA-B*15:17
# MEASUREMENT_NOTES: IEDB peptide-MHC binding, purified MHC/direct/fluorescence; filed as Kd, often an IC50 or EC50 that approximates it; bounds were set here for any values at or beyond the usual limits of such assays
# TEST_CONDITIONS: source organism: Coxiella burnetii

# BIOSEQUENCE, Kd
data = [
    ("VFFKQWFEK", "≥ 20 µM"),
]

* * *

# TGT: HLA-A*29:02
# MEASUREMENT_NOTES: IEDB peptide-MHC binding, purified MHC/direct/fluorescence; filed as Kd, often an IC50 or EC50 that approximates it; bounds were set here for any values at or beyond the usual limits of such assays
# TEST_CONDITIONS: source organism: Araucaria virus

# BIOSEQUENCE, Kd
data = [
    ("LYVAGVPEL", "≥ 20 µM"),
]

* * *

# TGT: HLA-A*02:01
# MEASUREMENT_NOTES: IEDB peptide-MHC binding, purified MHC/competitive/fluorescence; filed as Kd, often an IC50 or EC50 that approximates it; bounds were set here for any values at or beyond the usual limits of such assays
# TEST_CONDITIONS: source organism: Yersinia pestis Nepal516
pKd: −log10 of the molar value.

# BIOSEQUENCE, TGT, pKd
rows = [
    ("FVADYLARF", "HLA-A*02:01", 7.09),
]

* * *

# TGT: HLA-A*03:01
# MEASUREMENT_NOTES: IEDB peptide-MHC binding, purified MHC/direct/fluorescence; filed as Kd, often an IC50 or EC50 that approximates it; bounds were set here for any values at or beyond the usual limits of such assays
# TEST_CONDITIONS: source organism: Entamoeba histolytica HM-1:IMSS
pKd: −log10 of the molar value.
ENDPOINT: pKd

# BIOSEQUENCE, ENDPOINT, OBSERVED_MEASUREMENT
rows = [
    ("DSFAKQPQW", "pKd", "≤ 4.70"),
]

* * *

# TGT: HLA-A*01:01
# MEASUREMENT_NOTES: IEDB peptide-MHC binding, purified MHC/competitive/radioactivity; filed as Kd, often an IC50 or EC50 that approximates it; bounds were set here for any values at or beyond the usual limits of such assays
# TEST_CONDITIONS: source organism: Mammarenavirus choriomeningitidis
pKd: −log10 of the molar value.
ENDPOINT: pKd

# BIOSEQUENCE, OBSERVED_MEASUREMENT
rows = [
    ("QLQSPGVADY", 6.54),
]

* * *

# TGT: HLA-B*15:01
# MEASUREMENT_NOTES: IEDB peptide-MHC binding, purified MHC/competitive/radioactivity; filed as Kd, often an IC50 or EC50 that approximates it; bounds were set here for any values at or beyond the usual limits of such assays
# TEST_CONDITIONS: source organism: Dengue virus 4 Philippines/H241/1956

# BIOSEQUENCE, Kd (nM)
measured = [
    ("VMKRYSAPF", 10.2),
]

* * *

# TGT: HLA-A*01:01
# MEASUREMENT_NOTES: IEDB peptide-MHC binding, purified MHC/direct/fluorescence; filed as Kd, often an IC50 or EC50 that approximates it; bounds were set here for any values at or beyond the usual limits of such assays
# TEST_CONDITIONS: source organism: West Nile virus
pKd: −log10 of the molar value.
Overview of recorded pKd for various sequences
ENDPOINT: pKd

# BIOSEQUENCE, OBSERVED_MEASUREMENT
records = [
    ("YCPGTTVTL", "≤ 4.70"),
    ("KIRNRIERL", "≤ 4.70"),
]

meta.source: the Immune Epitope Database (IEDB)
